- System: Kidney
- experiment: Toxicity in mouse assessed as effect on copper level in kidney per gram of organ at 0.4 mmol/kg, ip qd for 5 days
- Assay type: organism-based
- experimental_setup: in vivo, 120 h
measurement_name: Activity (µg/g)

> print(dat)
                                    molecule  unit.label  meas.value
 1  CC(C)C[C@H](NC(=O)C1SC(C)(C)SC1C(=O)O)C(=O)O (stereo partly drawn)        µg/g        3.65
 2  CC1(C)SC(C(=O)O)C(C(=O)N[C@@H](Cc2c[nH]c3ccccc23)C(=O)O)S1 (stereo partly drawn)        µg/g        3.69
 3  CC1(C)SC(C(=O)O)C(C(=O)NCC(=O)O)S1 (stereo not drawn)        µg/g        3.62
 4  CC1(C)SC(C(=O)O)C(C(=O)N[C@@H](CC(=O)O)C(=O)O)S1 (stereo partly drawn)        µg/g        3.53
 5  CC1(C)SC(C(=O)O)C(C(=O)N[C@@H](CC(N)=O)C(=O)O)S1 (stereo partly drawn)        µg/g        3.72
 6  CSCC[C@H](NC(=O)C1SC(C)(C)SC1C(=O)O)C(=O)O (stereo partly drawn)        µg/g        3.65
 7  CC(C)[C@H](NC(=O)C1SC(C)(C)SC1C(=O)O)C(=O)O (stereo partly drawn)        µg/g        3.62
 8  CC1(C)SC(C(=O)O)C(C(=O)N[C@@H](CO)C(=O)O)S1 (stereo partly drawn)        µg/g        3.73
 9  CC1(C)SC(C(=O)O)C(C(=O)N[C@@H](CCC(=O)O)C(=O)O)S1 (stereo partly drawn)        µg/g        3.73
10  CC[C@H](C)[C@H](NC(=O)C1SC(C)(C)SC1C(=O)O)C(=O)O (stereo partly drawn)        µg/g        3.54
11  CC1(C)SC(C(=O)O)C(C(=O)N[C@@H](Cc2ccccc2)C(=O)O)S1 (stereo partly drawn)        µg/g        3.59
12  CC1(C)SC(C(=O)O)C(C(=O)N[C@@H](CCC(N)=O)C(=O)O)S1 (stereo partly drawn)        µg/g        3.59
13  CC1(C)SC(C(=O)O)C(C(=O)O)S1 (stereo not drawn)        µg/g         3.4

* * *

- System: Liver
- experiment: Toxicity in mouse assessed as effect on zinc level in liver per gram of organ at 0.4 mmol/kg, ip qd for 5 days
- Type: organism-based
- experimental_setup: in vivo, 120 h
measurement_name: Activity (µg/g)

> print(dat)
                                   compound  measurement.name  meas.value
1  CC1(C)SC(C(=O)O)C(C(=O)O)S1 (stereo not drawn)          Activity       36.66
2  CC1(C)SC(C(=O)O)C(C(=O)N[C@@H](CCC(N)=O)C(=O)O)S1 (stereo partly drawn)          Activity       37.85
3  CC1(C)SC(C(=O)O)C(C(=O)N[C@@H](CO)C(=O)O)S1 (stereo partly drawn)          Activity          37
4  CC1(C)SC(C(=O)O)C(C(=O)NCC(=O)O)S1 (stereo not drawn)          Activity       36.35
5  CC1(C)SC(C(=O)O)C(C(=O)N[C@@H](Cc2c[nH]c3ccccc23)C(=O)O)S1 (stereo partly drawn)          Activity       36.96
6  CC1(C)SC(C(=O)O)C(C(=O)N[C@@H](CCC(=O)O)C(=O)O)S1 (stereo partly drawn)          Activity       38.01
7  CSCC[C@H](NC(=O)C1SC(C)(C)SC1C(=O)O)C(=O)O (stereo partly drawn)          Activity       36.78
8  CC(C)C[C@H](NC(=O)C1SC(C)(C)SC1C(=O)O)C(=O)O (stereo partly drawn)          Activity       37.88
